Biological target: Calmodulin-1 (Homo sapiens)
Test: CALM1 binders on microarrays, EGTA buffer, profiling panel, biochemical, small-molecule microarray, Cy5-labelled CALM1 (AID 1111);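 note: labelled calmodulin applied in Tris saline Tween buffer holding calcium plus EGTA and DTT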
Settings: Cy5-CALM1 binding fluorescence, higher = more signal
Threshold check on composite z-score: at or above -0.4 gives satisfied, strictly below gives not satisfied.

These recorded examples may help you get a feel for the data.
Molecule | Class Label
C#CCCCON=C1C[C@@H](O)[C@@H](O)[C@@H]2[C@@H]3C(=O)N(C[C@@H]4CCCO4)C(=O)[C@@H]3CC[C@@H]12 | satisfied
CC1(C)O[C@H]2OC([C@H](O)CON3C(=O)c4ccccc4C3=O)[C@H](O)[C@H]2O1 (stereo partly specified) | not satisfied
CO[C@@H]1COC(=O)[C@@H]2CCCN2C(=O)[C@@H](C)COC(=O)CCC[C@H]1C | satisfied

Problem: Has COc1ccc(OC[C@@H](CO)OC)cc1 a recorded composite z-score greater than or equal to -0.4?
Solution: not satisfied

Problem: Has CO[C@H]1C[C@@H]2C[C@H](O)CC(CC(=O)O[C@@H](C=CCC(C)C)C[C@@H]3CC[C@H](C)[C@@H](C1)O3)O2 a recorded composite z-score greater than or equal to -0.4?
Solution: satisfied

Problem: Has C=CC[C@@H]1C=C[C@H](ON=C[C@@H](NS(=O)(=O)c2ccc(C)cc2)[C@H](C)C=CCC(=O)OC)[C@@H](CO)O1 a recorded composite z-score greater than or equal to -0.4?
Solution: not satisfied
